Biological target: human P450 11A1 (Homo sapiens, UniProt P05108)
Sequence (P05108 41-521 limits assumed): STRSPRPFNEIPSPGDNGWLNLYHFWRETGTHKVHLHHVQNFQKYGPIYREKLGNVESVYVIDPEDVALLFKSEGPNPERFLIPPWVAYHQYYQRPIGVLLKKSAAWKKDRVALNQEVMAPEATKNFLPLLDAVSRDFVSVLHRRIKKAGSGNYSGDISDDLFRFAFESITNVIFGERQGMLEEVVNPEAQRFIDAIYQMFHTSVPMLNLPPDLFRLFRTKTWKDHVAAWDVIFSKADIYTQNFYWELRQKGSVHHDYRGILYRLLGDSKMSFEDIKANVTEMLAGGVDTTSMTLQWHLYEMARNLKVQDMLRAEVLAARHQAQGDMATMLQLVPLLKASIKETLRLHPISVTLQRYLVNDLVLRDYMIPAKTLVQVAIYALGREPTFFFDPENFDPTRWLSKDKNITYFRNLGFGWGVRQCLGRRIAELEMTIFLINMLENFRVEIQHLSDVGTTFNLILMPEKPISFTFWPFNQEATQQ
Sequence (P00257 59-186 partner): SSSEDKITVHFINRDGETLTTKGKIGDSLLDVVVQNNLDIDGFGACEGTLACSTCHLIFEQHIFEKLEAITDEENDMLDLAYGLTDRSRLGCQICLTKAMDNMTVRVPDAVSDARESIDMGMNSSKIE
Test: Single-turnover kinetics of P450 11A1 with [1,2-3H]-cholesterol (radio-HPLC)
Assay type: biochemical
Parameters: M A S T R S P R P F N E I P S P G D N; Met-Ala (N-terminal start residues in place of the transit peptide and Ile40) (N); made in house; host or cells: E. coli (P450 11A1 in C41(DE3); Adx and AdR in E. coli)
Conditions: second table, headed 10-fold excess (high) Adx, time 200 s
Can you tell me concentration in single-turnover reaction for the items I'm about to list?
One number for each entry, in µM.

{"compound": "CC(C)CCC[C@@H](C)[C@H]1CC[C@H]2[C@@H]3CC=C4C[C@@H](O)CC[C@]4(C)[C@H]3CC[C@]12C", "units-of-measure": "µM", "experimental-result": 0}
{"compound": "CC(C)CC[C@@H](O)[C@@H](C)[C@H]1CC[C@H]2[C@@H]3CC=C4C[C@@H](O)CC[C@]4(C)[C@H]3CC[C@]12C [22R-OH Chol, 22R-hydroxycholesterol]", "units-of-measure": "µM", "experimental-result": 0}
{"compound": "CC(=O)[C@H]1CC[C@H]2[C@@H]3CC=C4C[C@@H](O)CC[C@]4(C)[C@H]3CC[C@]12C", "units-of-measure": "µM", "experimental-result": 4.5}

Record request: concentration in single-turnover reaction value, item CC(C)CC[C@@H](O)[C@](C)(O)[C@H]1CC[C@H]2[C@@H]3CC=C4C[C@@H](O)CC[C@]4(C)[C@H]3CC[C@]12C [20R,22R-(OH)2 Chol, (20R,22R)-Cholest-5-ene-3β,20,22-triol] 0

Cited source for all entries: paper PMC10716780
